Hey, just so you know, these numbers are from patent US12037324B2.

- TESTED SYSTEM: AGTR1 (Homo sapiens, UniProt P30556)
- Construct: host or cells: Pathunter CHO-K1 AGTR1 β-arrestin cell line (CHO-K1)
- Sequence (P30556 whole entry): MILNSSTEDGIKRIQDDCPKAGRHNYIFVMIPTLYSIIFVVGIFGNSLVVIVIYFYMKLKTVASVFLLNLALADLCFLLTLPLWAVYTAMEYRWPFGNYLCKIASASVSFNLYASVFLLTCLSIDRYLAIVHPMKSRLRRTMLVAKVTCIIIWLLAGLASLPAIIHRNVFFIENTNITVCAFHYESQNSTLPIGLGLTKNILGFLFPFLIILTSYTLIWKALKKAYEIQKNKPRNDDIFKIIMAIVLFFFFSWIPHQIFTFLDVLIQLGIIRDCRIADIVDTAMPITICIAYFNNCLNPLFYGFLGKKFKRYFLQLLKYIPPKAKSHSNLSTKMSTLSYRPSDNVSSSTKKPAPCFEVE
- ASSAY INFO: DiscoveRx β-arrestin2 recruitment assay (enzyme complementation, Pathunter CHO-K1 AGTR1 β-arrestin cell line)
- Format: cell-based
- SETUP CONDITIONS: DiscoveRx β-arrestin2 recruitment
- Procedure: In one aspect of the invention, signaling bias of compounds was assessed by comparing the relative activity of compounds to activate both the β-arrestin and Gq signaling pathways. In order to confirm signaling bias, compounds were studied in two different assay formats. DiscoveRx β-arrestin2 Recruitment and IP1 Assays β-arrestin2 recruitment to activated receptors can be assessed using an enzyme complementation method (Zhao, Jones et al. 2008). […]
For each entry below, report its EC50 value.
Numbers only, in nM.

MOLECULE	ENDPOINT NAME	READOUT VALUE
CCCCc1nc(Cl)c(C(=O)O)n1Cc1ccc(-c2cc(-c3cn(C(C)C)nc3C(F)(F)F)ccc2-c2nn[nH]n2)cc1 [Example 388]	EC50	44.7
CCCc1nc(CC)c(C(=O)O)n1Cc1ccc(-c2cc(-c3ccccc3)ccc2-c2nn[nH]n2)c(C)c1 [Example 425]	EC50	27.3
CCCCC1=NC2(CCCC2)C(=O)N1Cc1ccc(-c2cc(N3CC(C)(C)c4ccccc43)ccc2-c2nn[nH]n2)cc1 [Example 107]	EC50	26.7

Query: AGTR1 (Homo sapiens, UniProt P30556) / EC50 / Cc1ccnc(-c2ccc(-c3nn[nH]n3)c(-c3ccc(CN4C(=O)C5(CCCC5)N=C4C4CC4)cc3)c2)c1 [Example 120] : value?
Result: 12.5

###

- TESTED SYSTEM: hAT1R (Homo sapiens)
- ASSAY INFO: BRET β-arrestin2 biosensor assay, higher receptor expression (hAT1R 5 ng/well), HEK293 cells
- Format: cell-based
ENDPOINT NAME: BRET β-Arrestin2 High AT1R Expression Ymax (%)

# count of solved cases: 3
SMILES REPRESENTATION	READOUT VALUE
CCCCC(=O)N(Cc1ccc(-c2cc(-c3cccc(OC)n3)ccc2-c2nn[nH]n2)cc1)[C@H](C(=O)O)C(C)C	84.3%
CCCCC(=O)N(Cc1ccc(-c2cc(-c3ccccc3)ccc2-c2nn[nH]n2)cc1)C1(C(=O)O)CCCCC1	84.0%
CCCCc1ncc(C(=O)NCC(F)F)n1Cc1ccc(-c2cc(-c3ccccc3)ccc2-c2nn[nH]n2)cc1	79.4%

Turning to the following compound.
Query: Recall the recorded BRET β-Arrestin2 High AT1R Expression Ymax (%) for `CCCCc1ncc(C(=O)Nc2ccncc2C)n1Cc1ccc(-c2cc(-c3ccccc3)ccc2-c2nn[nH]n2)cc1` with hAT1R (Homo sapiens) and state it.
Result: 55.7%

###

Provide the recorded pEC50 for the entries that follow.
- TESTED SYSTEM: AGTR1 (Homo sapiens, UniProt P30556)
- Construct: host or cells: Pathunter CHO-K1 AGTR1 β-arrestin cell line (CHO-K1)
- ASSAY INFO: DiscoveRx β-arrestin2 recruitment assay (enzyme complementation, Pathunter CHO-K1 AGTR1 β-arrestin cell line)
- Type: cell-based
- SETUP CONDITIONS: DiscoveRx β-arrestin2 recruitment
Give bare numbers, as −log10 of the molar value.

Before answering, review these 5 worked examples.
SMILES REPRESENTATION	pEC50
CCc1nc2c(C)cc(C)nc2n1Cc1ccc(-c2cc(-c3cccc(C)c3)ccc2-c2nn[nH]n2)cc1	8.22
CCc1nc2c(C)cc(C)nc2n1Cc1ccc(-c2cc(N(C)c3ccccc3)ccc2-c2nn[nH]n2)cc1	7.88
CCc1nc2c(C)cc(C)nc2n1Cc1ccc(-c2cc(-c3cc(F)cc(F)c3)ccc2-c2nn[nH]n2)cc1	8.59
CCc1nc2c(C)cc(C)nc2n1Cc1ccc(-c2cc(-c3ccsc3)ccc2-c2nn[nH]n2)cc1	8.03
CCCCC1=NC2(CCCC2)C(=O)N1Cc1ccc(-c2cc(-c3ccccc3CO)ccc2-c2nn[nH]n2)cc1	7.59

Below are some compounds; for each one, tell me its pEC50.
1. CCc1nc2c(C)cc(C)nc2n1Cc1ccc(-c2cc(Oc3cccnc3)ccc2-c2noc(=O)[nH]2)cc1
2. CCCCc1ncc(C(=O)Nc2nc(C)cs2)n1Cc1ccc(-c2cc(-c3ccccc3)ccc2-c2nn[nH]n2)cc1

Result:
1: 7.89; 2: 7.16

###

- TESTED SYSTEM: hAT1R (Homo sapiens, UniProt P30556)
- Sequence (P30556 whole entry): as above
- ASSAY INFO: BRET β-arrestin2 biosensor assay, higher receptor expression (hAT1R 5 ng/well), HEK293 cells
- Type: cell-based
ENDPOINT NAME: BRET β-Arrestin2 High AT1R Expression Ymax (%)
Give bare numbers, in %.

COMPOUND	UNIT ABBREV	READOUT VALUE
CCCCc1ncc(C(=O)NCc2cc(C(C)C)no2)n1Cc1ccc(-c2cc(-c3ccccc3)ccc2-c2nn[nH]n2)cc1 [Example 363]	%	100.4

I have 5 compounds here; please give me BRET β-Arrestin2 High AT1R Expression Ymax (%) for each one.
1. CCCCC(=O)N(Cc1ccc(-c2cc(-c3cccnc3OC)ccc2-c2nn[nH]n2)cc1)[C@H](C(=O)O)C(C)C [Example 439]
2. CCCCC1=NC2(CCCC2)C(=O)N1Cc1ccc(-c2cc(N3CC(C)(C)c4ccccc43)ccc2-c2nn[nH]n2)cc1 [Example 107]
3. CCc1nc2c(C)cc(C)nc2n1Cc1ccc(-c2cc(-c3cccc(OC)c3)ccc2-c2nn[nH]n2)cc1 [Example 20]
4. CCc1nc2c(C)cc(C)nc2n1Cc1ccc(-c2cc(-c3cn(CC)nn3)ccc2-c2nnn[nH]2)cc1 [Example 234]
5. CCCCc1ncc(C(=O)NC2COC2)n1Cc1ccc(-c2cc(-c3ccccc3)ccc2-c2nn[nH]n2)cc1 [Example 358]

Result:
1. 35.8
2. 54.3
3. 85.5
4. 93.3
5. 88.8

Query: Any idea what BRET β-Arrestin2 High AT1R Expression Ymax (%) was measured for CCCCC(=O)N(Cc1ccc(-c2cc(-c3cnn(C)c3)ccc2-c2nn[nH]n2)cc1)C1(C(=O)O)CCCCC1 [Example 288] ?
Result: 69.2

###

- TESTED SYSTEM: hAT1R (Homo sapiens)
- ASSAY INFO: BRET β-arrestin2 biosensor assay, higher receptor expression (hAT1R 5 ng/well), HEK293 cells
- Type: cell-based
- SETUP CONDITIONS: High AT1R Expression
ENDPOINT NAME: pEC50
Answers are plain numbers, as −log10 of the molar value.

Consider the reported pEC50 for these compounds:
COMPOUND	TESTED SYSTEM	pEC50
CCCc1nc(CC)c(C(=O)NCC(F)(F)F)n1Cc1ccc(-c2cc(-c3ccccc3)ccc2-c2nn[nH]n2)cc1 [Example 397]	hAT1R (Homo sapiens)	7.09
CCc1nc2c(C)cc(C)nc2n1Cc1ccc(-c2cc(-c3cccc(C)n3)ccc2-c2nn[nH]n2)cc1 [Example 59]	hAT1R (Homo sapiens)	7.85
CCc1nc2c(C)cc(C)nc2n1Cc1ccc(-c2cc(-c3ccsn3)ccc2-c2nn[nH]n2)cc1 [Example 57]	hAT1R (Homo sapiens)	7.82
CCCCC(=O)N(Cc1ccc(-c2cc(-c3ccccc3)ccc2-c2nn[nH]n2)cc1)C1(C(=O)O)CCCC1 [Example 271]	hAT1R (Homo sapiens)	6.25
CCc1nc2c(C)cc(C)nc2n1Cc1ccc(-c2cc(Oc3ccccc3)ccc2-c2nnn[nH]2)cc1 [Example 204]	hAT1R (Homo sapiens)	8.44

Give one value of pEC50 per listed compound.
1. CCCCC(=O)N(Cc1ccc(-c2cc(-c3ccccc3)ccc2-c2nn[nH]n2)nc1)[C@H](C(=O)O)C(C)C [Example 430]
2. CCCCc1ncc(C(=O)NCC2CC2)n1Cc1ccc(-c2cc(-c3ccccc3)ccc2-c2nn[nH]n2)cc1 [Example 365]
3. CCc1nc2c(C)cc(C)nc2n1Cc1ccc(-c2cc(N3CCC(OC)CC3)ccc2-c2nn[nH]n2)cc1 [Example 87]
4. CCCCC1=NC2(CCCC2)C(=O)N1Cc1ccc(-c2cc(-c3ccsc3)ccc2-c2nn[nH]n2)cc1 [Example 130]
5. CCc1nc2c(C)cc(C)nc2n1Cc1ccc(-c2cc(-c3ccccc3)ccc2C(=O)O)cn1 [Example 196]

Result:
7.15
7.44
6.35
7.58
6.21

// each compound listed below needs its pEC50
1. CCc1nc2c(C)cc(C)nc2n1Cc1ccc(-c2cc(-n3cc(C4=CCCC4)nn3)ccc2-c2nnn[nH]2)cc1 [Example 229]
2. CCCCC1=NC2(CCCC2)C(=O)N1Cc1ccc(-c2cc(-c3cccc(C(F)(F)F)n3)ccc2-c2nn[nH]n2)cc1 [Example 142]

Result:
[7.59, 7.23]

The following compounds each have a reported value; give each one's pEC50.
1. CCc1nc2c(C)cc(C)nc2n1Cc1ccc(-c2cc(-n3cc(C4CC4)nn3)ccc2-c2nnn[nH]2)cc1 [Example 225]
2. CCCCC1=NC2(CCCC2)C(=O)N1Cc1ccc(-c2cc(N3CCC[C@@H](C)C3)ccc2-c2nn[nH]n2)cc1 [Example 106]
3. CCCCC(=O)N(Cc1ccc(-c2cc(-c3cccc(OC)n3)ccc2-c2nn[nH]n2)cc1)[C@H](C(=O)O)C(C)C [Example 446]
4. CCCCc1ncc(C(=O)NCCC)n1Cc1ccc(-c2cc(-c3ccccc3)ccc2-c2nn[nH]n2)cc1 [Example 372]

Result:
7.96
6.86
6.84
7.35

Kindly give each listed record's pEC50.
1. CCc1nc2c(C)cc(C)nc2n1Cc1ccc(-c2cc(-c3cccc(C)c3)ccc2C(=O)O)cn1 [Example 195]
2. CCCCc1nc(Cl)c(C(=O)O)n1Cc1ccc(-c2cc(N3CCCC(F)(F)C3)ccc2-c2nn[nH]n2)cc1 [Example 416]

Result:
7.00
6.94

# map each compound to its pEC50
1. CCCCc1ncc(C(=O)N2CCC2)n1Cc1ccc(-c2cc(-c3ccccc3)ccc2-c2nn[nH]n2)cc1 [Example 370]
2. CCc1nc2c(C)cc(C)nc2n1Cc1ccc(-c2cc(-c3ccc(C(F)(F)F)cc3)ccc2-c2nn[nH]n2)cc1 [Example 7]
3. CCCCC1=NC2(CCCC2)C(=O)N1Cc1ccc(-c2cc(N3CCCC(C)(C)C3)ccc2-c2nn[nH]n2)cc1 [Example 102]
4. CCOc1nc2cccc(C(=O)OC)c2n1Cc1ccc(-c2cc(-c3ccccc3)ccc2-c2noc(=O)[nH]2)cc1 [Example 316]
5. CCc1nc2c(C)cc(C)nc2n1Cc1ccc(-c2cc(C3CCCCC3)ccc2-c2nn[nH]n2)cc1 [Example 71]
6. CCc1nc2c(C)cc(C)nc2n1Cc1ccc(-c2cc(C3=NCCC3)ccc2-c2nn[nH]n2)cc1 [Example 77]
7. CCc1nc2c(C)cc(C)nc2n1Cc1ccc(-c2cc(Oc3ccc(F)cc3F)ccc2-c2nnn[nH]2)cc1 [Example 208]
8. CCCCOC(=O)NS(=O)(=O)c1sc(-c2ccccc2)cc1-c1ccc(Cn2c(CC)nc3c(C)cc(C)nc32)cc1 [Example 49]

Result:
1: 7.34; 2: 7.43; 3: 7.00; 4: 7.34; 5: 7.63; 6: 7.04; 7: 8.22; 8: 7.95

Give pEC50 for all compounds that follow.
1. CCCCc1nc(Cl)c(C(=O)O)n1Cc1ccc(-c2cc(-c3c[nH]c4ccccc34)ccc2-c2nn[nH]n2)cc1 [Example 391]
2. CCc1nc2c(C)cc(C)nc2n1Cc1ccc(-c2cc(Oc3cccc(OC(F)(F)F)c3)ccc2-c2nnn[nH]2)cc1 [Example 207]
3. CCCCC(=O)N(Cc1ccc(-c2cc(Oc3ccccc3)ccc2-c2nn[nH]n2)cc1)[C@H](C(=O)O)C(C)C [Example 435]

Result:
1: 7.93; 2: 7.66; 3: 6.52
